Each item that follows carries a reported solubility.
- assay_overview: Aqueous solubility by concentration measurement (absorbance at 280 nm) of saturated peptide solutions
- Format: physicochemical
Bridge positions count the residues as written; N and C are the ends. Square brackets hold non-standard residues; d marks the D form. Peptide text beside a SMILES is read from it. Trp(1-Me) = Cn1cc(C[C@H](N)C(=O)O)c2ccccc21

Consider the following illustrative entries.
{"compound": "CC[C@H](C)[C@H](NC(=O)[C@H](CO)NC(=O)[C@H](CCCNC(=N)N)NC(C)=O)C(=O)N[C@H]1CSSC[C@@H](C(=O)N[C@H](C(N)=O)[C@@H](C)O)NC(=O)[C@H](CCCNC(=N)N)NC(=O)[C@H](Cc2c[nH]cn2)NC(=O)[C@H](C)NC(=O)CNC(=O)[C@H](Cc2c[nH]c3ccccc23)NC(=O)[C@H](CC(=O)O)NC(=O)[C@H](CCC(N)=O)NC(=O)[C@H](Cc2cn(C)c3ccccc23)NC(=O)[C@H](C(C)C)NC1=O [Peptide VI, Ac-RS-ICV meWQDWGA HRCT-NH2]", "endpoint_name": "solubility", "recorded_value": "> 500 µM"}
{"compound": "CC(=O)N[C@@H](CCCNC(=N)N)C(=O)N[C@H]1CSSC[C@@H](C(=O)N[C@H](C(N)=O)[C@@H](C)O)NC(=O)[C@H](CCCNC(=N)N)NC(=O)[C@H](Cc2c[nH]cn2)NC(=O)[C@H](C)NC(=O)CNC(=O)[C@H](Cc2c[nH]c3ccccc23)NC(=O)[C@H](CC(=O)O)NC(=O)[C@H](CCC(N)=O)NC(=O)[C@H](Cc2cn(C)c3ccccc23)NC(=O)[C@H](C(C)C)NC1=O [Peptide III, Ac- RCV meWQDWGA HRCT-NH2] (Ac-RCV[Trp(1-Me)]QDWGAHRCT-NH2; disulfide 2-12)", "endpoint_name": "solubility", "recorded_value": "> 1000 µM"}

Now consider the entry below.
Query: Given the entry CC(=O)N[C@@H](CCCNC(=N)N)C(=O)N[C@H]1CSSC[C@@H](C(=O)N[C@H](C(N)=O)[C@@H](C)O)NC(=O)[C@H](CCCNC(=N)N)NC(=O)[C@H](Cc2c[nH]cn2)NC(=O)[C@H](C)NC(=O)CNC(=O)[C@H](Cc2c[nH]c3ccccc23)NC(=O)[C@H](CC(=O)O)NC(=O)[C@H](CCC(N)=O)NC(=O)[C@H](Cc2c[nH]c3ccccc23)NC(=O)[C@H](C(C)C)NC1=O [Peptide I, Ac- RCV WQDWGA HRCT-NH2] (Ac-RCVWQDWGAHRCT-NH2; disulfide 2-12) , report its measured solubility.
Reply: > 1000 µM

====

- assay_overview: RP-HPLC relative lipophilicity (retention factor k, log k)
- Format: physicochemical
- Method: The effect of the hydrophobic content of compstatin family peptides on relative lipophilicity was evaluated using RP-HPLC, a widely applied indirect technique for the determination of the lipophilicity of drugs and drug candidates. The determination of log P by RP-HPLC is based on the measurement of the retention factor k between the mobile and stationary phase (Eq. 7) of the investigated compound: […]
endpoint_name: logk
Give only the figure.

Query: Field request: logk | item: CC[C@H](C)[C@H](NC(C)=O)C(=O)N[C@H]1CSSC[C@@H](C(=O)N[C@H](C(N)=O)[C@@H](C)O)NC(=O)[C@H](CCCNC(=N)N)NC(=O)[C@H](Cc2c[nH]cn2)NC(=O)[C@H](C)NC(=O)CNC(=O)[C@H](Cc2c[nH]c3ccccc23)NC(=O)[C@H](CC(=O)O)NC(=O)[C@H](CCC(N)=O)NC(=O)[C@H](Cc2c[nH]c3ccccc23)NC(=O)[C@H](C(C)C)NC1=O [Peptide IX, Ac- ICV WQDWGA HRCT-NH2, reference compound]
Reply: 1.058

====

- assay_overview: RP-HPLC relative lipophilicity (retention factor k, log k)
- Assay type: physicochemical
Bridge positions count the residues as written; N and C are the ends. Square brackets hold non-standard residues; d marks the D form. Peptide text beside a SMILES is read from it. Trp(1-Me) = Cn1cc(C[C@H](N)C(=O)O)c2ccccc21
List of logk values.

Solved entries (count: 3):
{"compound": "CC(=O)N[C@@H](CCCNC(=N)N)C(=O)N[C@H]1CSSC[C@@H](C(=O)N[C@H](C(N)=O)[C@@H](C)O)NC(=O)[C@H](CCCNC(=N)N)NC(=O)[C@H](Cc2c[nH]cn2)NC(=O)[C@H](C)NC(=O)CNC(=O)[C@H](Cc2c[nH]c3ccccc23)NC(=O)[C@H](CC(=O)O)NC(=O)[C@H](CCC(N)=O)NC(=O)[C@H](Cc2cn(C)c3ccccc23)NC(=O)[C@H](C(C)C)NC1=O [Peptide III, Ac- RCV meWQDWGA HRCT-NH2] (Ac-RCV[Trp(1-Me)]QDWGAHRCT-NH2; disulfide 2-12)", "logk": 0.790}
{"compound": "CC[C@H](C)[C@H](N)C(=O)N[C@H]1CSSC[C@@H](C(=O)N[C@H](C(N)=O)[C@@H](C)O)NC(=O)[C@H](CCCN=C(N)N)NC(=O)[C@H](Cc2cnc[nH]2)NC(=O)[C@H](Cc2cnc[nH]2)NC(=O)CNC(=O)[C@H](Cc2c[nH]c3ccccc23)NC(=O)[C@H](CC(=O)O)NC(=O)[C@H](CCC(N)=O)NC(=O)[C@H](C(C)C)NC(=O)[C@H](C(C)C)NC1=O [Parent, ICV VQDWGH HRCT-NH2, reference compound]", "logk": 0.393}
{"compound": "CC[C@H](C)[C@H](NC(=O)[C@H](CO)NC(=O)[C@H](CCCNC(=N)N)NC(C)=O)C(=O)N[C@H]1CSSC[C@@H](C(=O)N[C@H](C(N)=O)[C@@H](C)O)NC(=O)[C@H](CCCNC(=N)N)NC(=O)[C@H](Cc2c[nH]cn2)NC(=O)[C@H](C)NC(=O)CNC(=O)[C@H](Cc2c[nH]c3ccccc23)NC(=O)[C@H](CC(=O)O)NC(=O)[C@H](CCC(N)=O)NC(=O)[C@H](Cc2cn(C)c3ccccc23)NC(=O)[C@H](C(C)C)NC1=O [Peptide VI, Ac-RS-ICV meWQDWGA HRCT-NH2]", "logk": 0.996}

Next item in the queue.
Query: Param item = CC(=O)N[C@@H](CCCNC(=N)N)C(=O)N[C@H]1CSSC[C@@H](C(=O)N[C@H](C(N)=O)[C@@H](C)O)NC(=O)[C@H](CCCNC(=N)N)NC(=O)[C@H](Cc2c[nH]cn2)NC(=O)[C@H](C)NC(=O)CNC(=O)[C@H](Cc2c[nH]c3ccccc23)NC(=O)[C@H](CC(=O)O)NC(=O)[C@H](CCC(N)=O)NC(=O)[C@H](Cc2c[nH]c3ccccc23)NC(=O)[C@H](C(C)C)NC1=O [Peptide I, Ac- RCV WQDWGA HRCT-NH2] (Ac-RCVWQDWGAHRCT-NH2; disulfide 2-12) ; retrieve measured logk.
Reply: 0.451

====

- assay_overview: RP-HPLC relative lipophilicity (retention factor k, log k)
- Type: physicochemical
Bridge positions count the residues as written; N and C are the ends. Peptide text beside a SMILES is read from it.
endpoint_name: Retention factor (k)
Please reply with the value in numeric form only.

Query: Please look up its Retention factor (k): CC(=O)N[C@@H](CCCNC(=N)N)C(=O)N[C@H]1CSSC[C@@H](C(=O)N[C@H](C(N)=O)[C@@H](C)O)NC(=O)[C@H](CCCNC(=N)N)NC(=O)[C@H](Cc2c[nH]cn2)NC(=O)[C@H](C)NC(=O)CNC(=O)[C@H](Cc2c[nH]c3ccccc23)NC(=O)[C@H](CC(=O)O)NC(=O)[C@H](CCC(N)=O)NC(=O)[C@H](Cc2c[nH]c3ccccc23)NC(=O)[C@H](C(C)C)NC1=O [Peptide I, Ac- RCV WQDWGA HRCT-NH2] (Ac-RCVWQDWGAHRCT-NH2; disulfide 2-12)
Reply: 2.828

====

- assay_overview: RP-HPLC relative lipophilicity (retention factor k, log k)
- Format: physicochemical
- Method: The effect of the hydrophobic content of compstatin family peptides on relative lipophilicity was evaluated using RP-HPLC, a widely applied indirect technique for the determination of the lipophilicity of drugs and drug candidates. The determination of log P by RP-HPLC is based on the measurement of the retention factor k between the mobile and stationary phase (Eq. 7) of the investigated compound: […]
Bridge positions count the residues as written; N and C are the ends. Square brackets hold non-standard residues; d marks the D form. Peptide text beside a SMILES is read from it. Trp(1-Me) = Cn1cc(C[C@H](N)C(=O)O)c2ccccc21
endpoint_name: Retention factor (k)
Give the value as a plain number.

Here is how some molecules turned out for Retention factor (k).
{"molecule": "CC(=O)N[C@@H](CCCNC(=N)N)C(=O)N[C@H]1CSSC[C@@H](C(=O)N[C@H](C(N)=O)[C@@H](C)O)NC(=O)[C@H](CCCNC(=N)N)NC(=O)[C@H](Cc2c[nH]cn2)NC(=O)[C@H](C)NC(=O)CNC(=O)[C@H](Cc2c[nH]c3ccccc23)NC(=O)[C@H](CC(=O)O)NC(=O)[C@H](CCC(N)=O)NC(=O)[C@H](Cc2cn(C)c3ccccc23)NC(=O)[C@H](C(C)C)NC1=O [Peptide III, Ac- RCV meWQDWGA HRCT-NH2] (Ac-RCV[Trp(1-Me)]QDWGAHRCT-NH2; disulfide 2-12)", "endpoint_name": "Retention factor (k)", "recorded_value": 6.165}
{"molecule": "CC[C@H](C)[C@H](NC(C)=O)C(=O)N[C@H]1CSSC[C@@H](C(=O)N[C@H](C(N)=O)[C@@H](C)O)NC(=O)[C@H](CCCNC(=N)N)NC(=O)[C@H](Cc2c[nH]cn2)NC(=O)[C@H](C)NC(=O)CNC(=O)[C@H](Cc2c[nH]c3ccccc23)NC(=O)[C@H](CC(=O)O)NC(=O)[C@H](CCC(N)=O)NC(=O)[C@H](Cc2c[nH]c3ccccc23)NC(=O)[C@H](C(C)C)NC1=O [Peptide IX, Ac- ICV WQDWGA HRCT-NH2, reference compound]", "endpoint_name": "Retention factor (k)", "recorded_value": 11.429}
{"molecule": "CC[C@H](C)[C@H](N)C(=O)N[C@H]1CSSC[C@@H](C(=O)N[C@H](C(N)=O)[C@@H](C)O)NC(=O)[C@H](CCCN=C(N)N)NC(=O)[C@H](Cc2cnc[nH]2)NC(=O)[C@H](Cc2cnc[nH]2)NC(=O)CNC(=O)[C@H](Cc2c[nH]c3ccccc23)NC(=O)[C@H](CC(=O)O)NC(=O)[C@H](CCC(N)=O)NC(=O)[C@H](C(C)C)NC(=O)[C@H](C(C)C)NC1=O [Parent, ICV VQDWGH HRCT-NH2, reference compound]", "endpoint_name": "Retention factor (k)", "recorded_value": 2.472}

Query: Return reported Retention factor (k); argument: CC[C@H](C)[C@H](NC(=O)[C@H](CO)NC(=O)[C@H](CCCNC(=N)N)NC(C)=O)C(=O)N[C@H]1CSSC[C@@H](C(=O)N[C@H](C(N)=O)[C@@H](C)O)NC(=O)[C@H](CCCNC(=N)N)NC(=O)[C@H](Cc2c[nH]cn2)NC(=O)[C@H](C)NC(=O)CNC(=O)[C@H](Cc2c[nH]c3ccccc23)NC(=O)[C@H](CC(=O)O)NC(=O)[C@H](CCC(N)=O)NC(=O)[C@H](Cc2cn(C)c3ccccc23)NC(=O)[C@H](C(C)C)NC1=O [Peptide VI, Ac-RS-ICV meWQDWGA HRCT-NH2]
Reply: 9.913
